biological target: CDK4/cyclin D3 (Homo sapiens); test: Kinase activity assay, Caliper Mobility Shift Assay, CDK4/cyclin D3; details: 10 nM kinase, ATP 250 μM, 150 minutes at room temperature
Sequence (P11802 whole entry, species assumed): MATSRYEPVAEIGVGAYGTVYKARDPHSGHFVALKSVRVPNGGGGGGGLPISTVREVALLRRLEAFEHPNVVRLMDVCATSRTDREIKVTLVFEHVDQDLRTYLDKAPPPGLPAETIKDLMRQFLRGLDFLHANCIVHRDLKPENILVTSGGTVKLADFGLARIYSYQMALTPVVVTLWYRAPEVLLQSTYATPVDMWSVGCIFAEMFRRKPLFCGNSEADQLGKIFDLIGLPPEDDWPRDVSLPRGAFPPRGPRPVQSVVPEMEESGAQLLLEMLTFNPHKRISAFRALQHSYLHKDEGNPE
Sequence (P30281 whole entry partner, species assumed): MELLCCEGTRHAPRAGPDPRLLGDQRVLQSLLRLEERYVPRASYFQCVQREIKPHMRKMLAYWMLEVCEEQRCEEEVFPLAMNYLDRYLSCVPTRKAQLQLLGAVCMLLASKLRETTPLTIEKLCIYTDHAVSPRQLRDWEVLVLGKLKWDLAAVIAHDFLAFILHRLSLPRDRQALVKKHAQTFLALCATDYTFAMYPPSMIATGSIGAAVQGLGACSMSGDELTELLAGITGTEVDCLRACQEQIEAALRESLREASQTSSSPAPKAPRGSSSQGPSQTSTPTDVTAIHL
Where a name gives a salt, the structure may show the parent alone.
Known log10 of IC50 of a selection of molecules
Parameter value (number): base-10 log of IC50 in nM.

Some solved entries appear below for comparison.
CC(C)c1noc2ccc3cnc(Nc4ccc(N5CCNCC5=O)cn4)nc3c12 | 0.85
CC(C)c1noc2c1-c1nc(Nc3ccc(N4CCNCC4)c(F)c3)ncc1CC2 | 0.85
Cc1cc(Nc2ncc3ccc4onc(C(C)C)c4c3n2)ncc1N1CCNCC1 | 0.78
CC(C)c1noc2ccc3cnc(Nc4ccc(N5CCNCC5)nn4)nc3c12 | 0.85
CCN1CCN(c2ccc(Nc3ncc4ccc5onc(CC(C)C)c5c4n3)nc2)CC1 | 0.85

// Input: CC(C)c1noc2ccc3cnc(Nc4ccc(N5CCN(C)CC5)cn4)nc3c12 . Output its log10 of IC50 only.
0.00

// Input: CC(C)c1noc2ccc3cnc(Nc4ccc(N5CCNCC5)c(F)c4)nc3c12 . Output its log10 of IC50 only.
0.48

// Input: CC(C)c1noc2ccc3cnc(Nc4ccc(N5CCNCC5)cn4)nc3c12 [Compound I-1, hydrochloride] . Output its log10 of IC50 only.
0.30

// Input: CC(C)c1noc2ccc3cnc(Nc4ccc(C5CCNCC5)cn4)nc3c12 . Output its log10 of IC50 only.
0.60

// Input: CCN1CCN(c2ccc(Nc3ncc4ccc5onc(C(C)C)c5c4n3)cc2)CC1 . Output its log10 of IC50 only.
0.30
